System: MCF7 breast
Assay: NCI tumour cell line growth inhibition, 48 h
What TGI was measured for each of the following?

Record excerpt, results attached:
compound	reported
Cn1cc(C2=C(c3cn(CCN)c4ccccc34)C(=O)NC2=O)c2ccccc21	> 23.4 µM
O=S(CCCl)c1c2ccccc2nc2ccccc12 (stereo not given)	> 100 µM
O=c1[nH]nc(Cc2ccc(Cl)cc2)n1/N=C\c1ccc(/C=N/n2c(Cc3ccc(Cl)cc3)n[nH]c2=O)cc1	> 100 µM

Below are 2 compounds. Give each one its TGI.
1. O=C(NC1=NC2C=CC([N+](=O)[O-])=CC2S1)C(=O)Nn1c(=S)[nH]c2ccccc2c1=O (stereo not given)
2. COc1cccc(N2C(=O)CSC2c2cc(OC)c(OC)c(OC)c2)c1 (stereo not given)

Output:
1: > 100 µM; 2: > 100 µM
